Experiment: Plasma pharmacokinetics in patients
Conditions: human, plasma, po, Tmax (range across cohorts), patients, across cohorts
Measurement kind: Tmax

// query Retrieve Tmax measured for O=C(O)c1ccc(Nc2ncc3c(n2)-c2ccc(Cl)cc2C(c2c(F)cccc2F)=NC3)cc1 [MLN8054] and print it.
// result 1 to 4 h

###

Experiment: Plasma pharmacokinetics in patients
Settings: human, plasma, oral, 55 mg, Tmax, Mean (SD), QID/M-7D 55 mg, Day 7, Dose 2, steady state, n=3
Measurement kind: Tmax (h)
State the answer as a number, implicitly in h.

// query Retrieve Tmax measured for O=C(O)c1ccc(Nc2ncc3c(n2)-c2ccc(Cl)cc2C(c2c(F)cccc2F)=NC3)cc1 and print it.
// result 1

From: paper PMC3026871
